Source listed as paper PMC7578061.

Target: mitochondrial complex III (Mus musculus, UniProt P00158+Q9CR68)
Construct: carried out on acutely permeabilized cells in the presence of different mitochondrial substrates; endogenous in cells; host or cells: LLC (A11); LKR13 (A13)
Assay: Seahorse complex III-driven OCR in LKR13 cells
Type: cell-based
Measurement name: IC50 (nM)

1. O=C1C(OCCCCCCCCCC[P+](c2ccccc2)(c2ccccc2)c2ccccc2)=C([C@H]2CC[C@H](c3ccc(Cl)cc3)CC2)C(=O)c2ccccc21 2100

###

As shown below, each of these compounds has a reported IC50 value.
Tested on: MiaPaCa-2 cells
Experiment: IncuCyte cell proliferation (cell confluence), MiaPaCa-2
Format: cell-based, human
Conditions: Homo sapiens, MIA PaCa-2, MiaPaCa-2 cells; confluence as control groups reach 98% confluency; read-out: IC50, inhibition of cell proliferation (cell confluence)
Measurement name: IC50 (µM)

1) O=C1C(OCCCCCCCCCC[P+](c2ccccc2)(c2ccccc2)c2ccccc2)=C([C@H]2CC[C@H](c3ccc(Cl)cc3)CC2)C(=O)c2ccccc21 0.22
2) O=C1C(OCCCC[P+](c2ccccc2)(c2ccccc2)c2ccccc2)=C([C@H]2CC[C@H](c3ccc(Cl)cc3)CC2)C(=O)c2ccccc21 0.18
3) O=C1C(OCCCCCCCCCCCCCCCC[P+](c2ccccc2)(c2ccccc2)c2ccccc2)=C([C@H]2CC[C@H](c3ccc(Cl)cc3)CC2)C(=O)c2ccccc21 3
4) O=C1C(O)=C([C@H]2CC[C@H](c3ccc(Cl)cc3)CC2)C(=O)c2ccccc21 18

###

Target: mitochondrial complex III (Homo sapiens, UniProt P00156+P47985)
Assay: Seahorse complex III-driven OCR in permeabilized MiaPaCa-2 cells
Format: cell-based
Design: carried out on acutely permeabilized cells in the presence of different mitochondrial substrates; endogenous in cells; host or cells: MiaPaCa-2 (A7)
Conditions: MiaPaCa-2 cells treated 24 h; duroquinol; read-out: Complex III IC50 (AA-inhibitable OCR)
# IC50 listing for each entry below
Measurement name: IC50 (nM)

1. O=C1C(OCCCC[P+](c2ccccc2)(c2ccccc2)c2ccccc2)=C([C@H]2CC[C@H](c3ccc(Cl)cc3)CC2)C(=O)c2ccccc21 580
2. O=C1C(OCCCCCCCCCC[P+](c2ccccc2)(c2ccccc2)c2ccccc2)=C([C@H]2CC[C@H](c3ccc(Cl)cc3)CC2)C(=O)c2ccccc21 780

###

System: A549 human lung cancer cells
Assay: IncuCyte cell proliferation (cell confluence), A549
Type: cell-based
Details: read-out: IC50, inhibition of cell proliferation (cell confluence)
pIC50: −log10 of the molar value.
A collection of compounds and their measured pIC50
Measurement name: pIC50

Compound	Measurement name	Data value
O=C1C(O)=C([C@H]2CC[C@H](c3ccc(Cl)cc3)CC2)C(=O)c2ccccc21 [ATO, Atovaquone]	pIC50	4.80
O=C1C(OCCCCCCCCCC[P+](c2ccccc2)(c2ccccc2)c2ccccc2)=C([C@H]2CC[C@H](c3ccc(Cl)cc3)CC2)C(=O)c2ccccc21 [Mito10-ATO]	pIC50	6.85
